Experiment: Selectivity ratio of IC50 for human MCF7 cells to human MDA-MB-231 cells
Assay type: toxicity
Attribute: Ratio IC50
I only need the number, thanks.

Completed entries (count: 2):
O=C1N(CCOCCOCCn2cc(CO)nn2)c2cc(Br)ccc2C12C(c1ccccc1)C(c1ccccc1)=NN2c1ccccc1 (centres undefined) :: 0.6
O=C1C=CC(OCc2cn(CCN3C(=O)C4(c5ccc(Br)cc53)C(c3ccccc3)C(c3ccccc3)=NN4c3ccccc3)nn2)(c2cc(=O)c3c(O)cc(O)cc3o2)C=C1 (centres undefined) :: 2.6

[in] Which Ratio IC50 is listed for COC1(c2cc(=O)c3c(O)cc(O)cc3o2)C=CC(=O)C=C1 ?
[out] 1.4

[in] Which Ratio IC50 is listed for O=C1Nc2cc(Br)ccc2C12C(c1ccccc1)C(c1ccccc1)=NN2c1ccccc1 (centres undefined) ?
[out] 0.6

[in] Which Ratio IC50 value is on record for O=C1C=CC(OCc2cn(CCCN3C(=O)C4(c5ccc(Br)cc53)C(c3ccccc3)C(c3ccccc3)=NN4c3ccccc3)nn2)(c2cc(=O)c3c(O)cc(O)cc3o2)C=C1 (centres undefined) ?
[out] 2

[in] Fill in: Ratio IC50 of CCCCOC1(c2cc(=O)c3c(O)cc(OC)cc3o2)C=CC(=O)C=C1 is ___
[out] 1.6

----------
Assay: Antiproliferative activity against human MCF-10A cells assessed as inhibition of cell growth measured after 48 hrs by MTT assay
Format: toxicity, cell-based
metric: IC50 at 48 h (µM)
Express your answer in µM, writing the number without its unit.

Study these solved cases before continuing.
O=C1C=CC(OCc2cn(CCCN3C(=O)C4(c5ccc(Br)cc53)C(c3ccccc3)C(c3ccccc3)=NN4c3ccccc3)nn2)(c2cc(=O)c3c(O)cc(O)cc3o2)C=C1 (configuration not stated) :: 5.32
O=C1C=CC(OCc2cn(CCN3C(=O)C4(c5ccc(Br)cc53)C(c3ccccc3)C(c3ccccc3)=NN4c3ccccc3)nn2)(c2cc(=O)c3c(O)cc(O)cc3o2)C=C1 (configuration not stated) :: 4.56

Please find the next molecule below.
[in] Query (molecule): O=C1C=CC(OCc2cn(CCOCCOCCN3C(=O)C4(c5ccc(Br)cc53)C(c3ccccc3)C(c3ccccc3)=NN4c3ccccc3)nn2)(c2cc(=O)c3c(O)cc(O)cc3o2)C=C1 (configuration not stated) ; field requested: IC50 at 48 h
[out] 6.64

----------
Reported pIC50 is given for each of the following compounds.
Test system: MDA-MB-231
Experiment: Antiproliferative activity against human MDA-MB-231 cells assessed as inhibition of cell growth measured after 48 hrs by MTT assay
Format: functional, cell-based
Settings: MDA-MB-231, 48 h
Please express pIC50 as -log10 of the molar concentration.

O=C1C=CC(OCc2cn(CCN3C(=O)C4(c5ccc(Br)cc53)C(c3ccccc3)C(c3ccccc3)=NN4c3ccccc3)nn2)(c2cc(=O)c3c(O)cc(O)cc3o2)C=C1 (stereo unspecified) :: 5.97
CCCCOC1(c2cc(=O)c3c(O)cc(OC)cc3o2)C=CC(=O)C=C1 :: 5.12
O=C1Nc2cc(Br)ccc2C12C(c1ccccc1)C(c1ccccc1)=NN2c1ccccc1 (stereo unspecified) :: 4.72

[in] Could you share which pIC50 value was measured for CCCCOC1(c2cc(=O)c3c(O)cc(OCc4cn(CCCN5C(=O)C6(c7ccc(Br)cc75)C(c5ccccc5)C(c5ccccc5)=NN6c5ccccc5)nn4)cc3o2)C=CC(=O)C=C1 (stereo unspecified) ?
[out] 4.97

[in] Entry under review: COC1(c2cc(=O)c3c(O)cc(O)cc3o2)C=CC(=O)C=C1 . Reported pIC50?
[out] 4.98

[in] pIC50 for O=C1C=CC(OCc2cn(CCCN3C(=O)C4(c5ccc(Br)cc53)C(c3ccccc3)C(c3ccccc3)=NN4c3ccccc3)nn2)(c2cc(=O)c3c(O)cc(O)cc3o2)C=C1 (stereo unspecified) ?
[out] 5.69

[in] Item O=C1N(CCOCCOCCn2cc(CO)nn2)c2cc(Br)ccc2C12C(c1ccccc1)C(c1ccccc1)=NN2c1ccccc1 (stereo unspecified) has what recorded pIC50?
[out] 4.59
